# assay.details: Solubility of KUS121 in PBS buffer at different temperatures (filtrate quantified by HPLC)
# Assay type: physicochemical
# condition.context: PBS buffer solution, aqueous buffer, thermodynamic from solid, 50°C
reported.property: solubility (µg/mL)

| smiles.notation | unit.abbreviation | quantitative.readout |
| --- | --- | --- |
| Cc1cc(F)ccc1-c1ccc(N=Nc2cc(S(=O)(=O)[O-])c3ccccc3c2N)cn1.O.O.[Na+] | µg/mL | 47 |

###

# assay.details: Preliminary experiment: soluble concentration of KUS121 in normal PBS buffer
# Format: physicochemical
# condition.context: normal PBS buffer solution, aqueous buffer; normal PBS buffer, room temperature, preliminary experiment
# Method: The maximum dose of KUS121 to the vitreous body of the eye is 50 µg/eye, and the liquid volume that can be administered into the vitreous body is preferably about 100 µL or less. […]

| compound | solubility |
| --- | --- |
| Cc1cc(F)ccc1-c1ccc(N=Nc2cc(S(=O)(=O)[O-])c3ccccc3c2N)cn1.O.O.[Na+] [KUS121] | ≤ 10 µg/mL |

###

# assay.details: Solubility of KUS121 in water
# Assay type: physicochemical
# condition.context: at 25°C

| smiles.notation | solubility |
| --- | --- |
| Cc1cc(F)ccc1-c1ccc(N=Nc2cc(S(=O)(=O)[O-])c3ccccc3c2N)cn1.O.O.[Na+] | ~2800 µg/mL |

###

# assay.details: Solubility of KUS121 in PBS buffer at different temperatures (filtrate quantified by HPLC)
# Type: physicochemical
# condition.context: PBS buffer solution, aqueous buffer, thermodynamic from solid, 40°C

| smiles.notation | solubility [µg/mL] |
| --- | --- |
| Cc1cc(F)ccc1-c1ccc(N=Nc2cc(S(=O)(=O)[O-])c3ccccc3c2N)cn1.O.O.[Na+] | 7 |
